target: Concanavalin-A (Canavalia ensiformis) (UniProt P02866); test: compounds binding concanavalin A lectin – biochemical, small-molecule microarray, Alexa647 label, 635 nm, artefact control for SMM control protein annotation, primary screen (AID 1127); conditions: ConA-A647 binding fluorescence, higher = more signal;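 also: z combines 667 nm emission intensity with signal-to-noise across three replicate slides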
Sequence (P02866 whole entry, looked up): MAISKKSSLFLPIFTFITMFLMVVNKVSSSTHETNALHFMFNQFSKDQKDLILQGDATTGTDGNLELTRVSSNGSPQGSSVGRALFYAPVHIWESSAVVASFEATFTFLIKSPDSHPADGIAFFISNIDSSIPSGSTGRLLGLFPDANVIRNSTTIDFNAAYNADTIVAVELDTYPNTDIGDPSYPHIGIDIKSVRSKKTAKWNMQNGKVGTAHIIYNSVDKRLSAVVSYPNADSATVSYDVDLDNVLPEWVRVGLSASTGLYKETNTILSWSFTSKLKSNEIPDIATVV

COMPOUND	TESTED_ON	composite z-score
O=C(NC1CC1)[C@@H]1c2ccccc2C(=O)N(C2Cc3ccccc3C2)[C@H]1c1ccc(CO)cc1	Concanavalin-A (Canavalia ensiformis) (UniProt P02866)	0.918
CO[C@H]1O[C@H](CO)[C@@H](OC(=O)Nc2cccc(F)c2)[C@H](OC(=O)Nc2ccccc2)[C@H]1OC(=O)Nc1ccccc1	Concanavalin-A (Canavalia ensiformis) (UniProt P02866)	0.899
COCCCNC(=O)[C@@]1(Cc2ccccc2)N=C(c2ccc(OCCCO)cc2)O[C@H]1c1ccccc1CN=[N+]=[N-]	Concanavalin-A (Canavalia ensiformis) (UniProt P02866)	1.12
COCC(=C=CC[C@H](O)c1ccccc1OCCO)CCO	Concanavalin-A (Canavalia ensiformis) (UniProt P02866)	0.298
NCCCCCCNC(=O)[C@H]1C[C@H]2C(=O)N[C@@H](Cc3ccccc3)C(=O)N2[C@H]1c1cccc(OCCO)c1	Concanavalin-A (Canavalia ensiformis) (UniProt P02866)	1.03
CCOC(=O)C1=CC[C@H]2C(=O)N(c3ccccc3)C(=O)[C@@H]12	Concanavalin-A (Canavalia ensiformis) (UniProt P02866)	1.05
CC(C)NC(=O)[C@@H]1c2ccccc2C(=O)N(C(C)C)[C@H]1c1ccc(CO)cc1	Concanavalin-A (Canavalia ensiformis) (UniProt P02866)	0.185
C#CCNCc1ccccc1	Concanavalin-A (Canavalia ensiformis) (UniProt P02866)	0.159
COCCOC(=O)N1C(=O)[C@@]2(c3cc(C#CC4(O)CCCCCC4)ccc31)[C@H](C(=O)Nc1nc3ccccc3s1)[C@H]1C(=O)O[C@H](c3ccccc3)[C@H](c3ccccc3)N1[C@@H]2c1ccc(OCCO)cc1	Concanavalin-A (Canavalia ensiformis) (UniProt P02866)	1.1
O=C1O[C@H](c2ccccc2)[C@H](c2ccccc2)N2[C@H]1[C@@H](C(=O)NC[C@H](O)c1ccccc1)[C@]1(C(=O)Nc3ccc(C#CC4=CCCCC4)cc31)[C@H]2c1ccccc1OCCO	Concanavalin-A (Canavalia ensiformis) (UniProt P02866)	0.978
CN(C)CCCCNC(=O)[C@@H]1C[C@@H]2C(=O)N[C@@H](CCCCN)C(=O)N2[C@@H]1c1ccc(O)cc1	Concanavalin-A (Canavalia ensiformis) (UniProt P02866)	1.19
O=C1O[C@@H](c2ccccc2)[C@@H](c2ccccc2)N2[C@@H](c3ccccc3OCCO)[C@]3(C(=O)Nc4ccccc43)[C@@H](C(=O)O)[C@H]12	Concanavalin-A (Canavalia ensiformis) (UniProt P02866)	1.13
CCOC(=O)[C@H]1C/C=C/C[C@H](C(=O)OCC)C(=O)O[C@H]2[C@@H](OC)O[C@H](CO)[C@@H](OC(=O)c3ccc(Br)cc3)[C@@H]2OC1=O	Concanavalin-A (Canavalia ensiformis) (UniProt P02866)	0.205
O=C1NC(=O)C2C1C=CC(C(O)C=Cc1ccc([N+](=O)[O-])cc1)N2Nc1ccc(Cl)cc1Cl (stereo not given)	Concanavalin-A (Canavalia ensiformis) (UniProt P02866)	0.76
CC=CC(O)C1C=CC2C(=O)N(C)C(=O)C2N1N(c1ccccc1)c1ccccc1 (stereo not given)	Concanavalin-A (Canavalia ensiformis) (UniProt P02866)	0.555

// data source = PubChem BioAssay
